- Subject Of Test: Chromo domain-containing protein 1 (Saccharomyces cerevisiae (strain ATCC 204508 / S288c) (Baker's yeast)) (UniProt P32657)
- Sequence (P32657 whole entry, the tested form may be a part): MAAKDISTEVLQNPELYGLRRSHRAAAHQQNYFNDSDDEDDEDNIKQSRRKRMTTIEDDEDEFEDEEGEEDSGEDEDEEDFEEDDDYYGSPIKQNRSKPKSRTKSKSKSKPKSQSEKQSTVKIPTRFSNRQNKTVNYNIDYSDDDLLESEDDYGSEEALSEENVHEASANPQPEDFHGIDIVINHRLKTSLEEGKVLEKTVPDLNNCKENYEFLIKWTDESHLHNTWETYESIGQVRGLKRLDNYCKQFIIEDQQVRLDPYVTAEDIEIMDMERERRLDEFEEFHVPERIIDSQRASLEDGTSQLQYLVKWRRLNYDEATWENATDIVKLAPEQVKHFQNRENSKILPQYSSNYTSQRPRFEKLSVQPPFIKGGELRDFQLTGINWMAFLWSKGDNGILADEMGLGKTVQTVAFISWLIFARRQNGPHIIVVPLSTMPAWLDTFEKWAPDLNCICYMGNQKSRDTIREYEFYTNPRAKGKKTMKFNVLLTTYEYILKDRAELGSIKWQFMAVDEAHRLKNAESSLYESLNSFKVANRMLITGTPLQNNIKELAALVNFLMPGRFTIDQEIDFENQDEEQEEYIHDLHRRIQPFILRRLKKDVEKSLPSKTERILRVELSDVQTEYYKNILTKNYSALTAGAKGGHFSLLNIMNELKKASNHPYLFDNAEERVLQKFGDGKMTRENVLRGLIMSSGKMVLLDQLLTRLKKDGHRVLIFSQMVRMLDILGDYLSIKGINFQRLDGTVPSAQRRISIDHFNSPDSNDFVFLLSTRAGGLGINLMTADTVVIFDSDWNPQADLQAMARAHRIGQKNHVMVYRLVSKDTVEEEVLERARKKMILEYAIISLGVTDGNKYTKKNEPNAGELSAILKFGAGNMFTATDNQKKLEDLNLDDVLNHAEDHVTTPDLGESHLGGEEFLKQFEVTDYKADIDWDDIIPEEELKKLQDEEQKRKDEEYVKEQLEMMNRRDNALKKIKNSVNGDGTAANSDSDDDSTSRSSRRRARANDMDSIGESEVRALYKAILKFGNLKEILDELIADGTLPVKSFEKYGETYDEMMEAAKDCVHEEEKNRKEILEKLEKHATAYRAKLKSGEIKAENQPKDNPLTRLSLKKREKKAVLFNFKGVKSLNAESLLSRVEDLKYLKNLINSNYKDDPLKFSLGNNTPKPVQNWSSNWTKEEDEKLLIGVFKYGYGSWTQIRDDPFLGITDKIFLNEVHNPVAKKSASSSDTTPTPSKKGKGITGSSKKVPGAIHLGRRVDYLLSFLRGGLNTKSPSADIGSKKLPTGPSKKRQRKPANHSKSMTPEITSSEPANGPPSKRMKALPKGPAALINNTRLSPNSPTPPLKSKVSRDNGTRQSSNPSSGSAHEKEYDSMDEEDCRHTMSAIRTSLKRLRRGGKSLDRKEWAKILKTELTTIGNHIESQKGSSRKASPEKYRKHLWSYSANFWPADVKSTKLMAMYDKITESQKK
- Experiment: ScCHD-1 Enzyme Inhibition Assay
- Assay type: functional
- Set-up: scale not given: in the data most compounds retested in dose-response had high values
- Details: 30 µM
Recorded Percent Effect for the following compounds
Metric: Percent Effect (%)

INSERT INTO assay_data (compound, metric, observed_measurement) VALUES
  ('Cc1cnn(CC2CCCN2C(=O)c2cc3c(F)cccc3[nH]2)c1 (stereo unspecified)', 'Percent Effect', -1.7),
  ('CC(C)(O)CN1CCN(C(=O)c2cccnc2O)CC1', 'Percent Effect', -0.501),
  ('Cc1cccc(CN2CCc3nnc(CO)n3CC2)n1', 'Percent Effect', -7.15),
  ('CN(C)CC1CN(Cc2nnc(-c3ccccc3Cl)o2)CCO1 (stereo unspecified)', 'Percent Effect', -11.7),
  ('O=C1CC(c2ccco2)c2sc(C(=O)O)c(-c3ccccc3)c2N1 (stereo unspecified)', 'Percent Effect', 44.8),
  ('Cc1ccc(-c2cc(CN3CCOC(Cn4cncn4)C3)on2)cc1 (stereo unspecified)', 'Percent Effect', -5.72),
  ('Cc1n[nH]c(C)c1C1COCCN1C(=O)c1ccccc1 (stereo unspecified)', 'Percent Effect', -0.727),
  ('O=C(CN1CCCS1(=O)=O)NCCOc1ccc2c(c1)CCC2', 'Percent Effect', -2.78),
  ('CN(Cc1ccco1)[C@@H]1CN(Cc2ccc(F)cc2)C[C@@H]2CCCO[C@@H]21', 'Percent Effect', -3.55),
  ('Cc1cnn(C2CCCN(C(=O)c3sccc3-n3cnnn3)C2)c1 (stereo unspecified)', 'Percent Effect', 3.04),
  ('Cc1[nH]nc(CCC(=O)N2CCCC(OCc3cccnc3)C2)c1C (stereo unspecified)', 'Percent Effect', -1.03);

// provenance: ChEMBL document CHEMBL3988442
